# testedTarget: hERG potassium ion channel (Homo sapiens)
# Sequence (Q12809 whole entry): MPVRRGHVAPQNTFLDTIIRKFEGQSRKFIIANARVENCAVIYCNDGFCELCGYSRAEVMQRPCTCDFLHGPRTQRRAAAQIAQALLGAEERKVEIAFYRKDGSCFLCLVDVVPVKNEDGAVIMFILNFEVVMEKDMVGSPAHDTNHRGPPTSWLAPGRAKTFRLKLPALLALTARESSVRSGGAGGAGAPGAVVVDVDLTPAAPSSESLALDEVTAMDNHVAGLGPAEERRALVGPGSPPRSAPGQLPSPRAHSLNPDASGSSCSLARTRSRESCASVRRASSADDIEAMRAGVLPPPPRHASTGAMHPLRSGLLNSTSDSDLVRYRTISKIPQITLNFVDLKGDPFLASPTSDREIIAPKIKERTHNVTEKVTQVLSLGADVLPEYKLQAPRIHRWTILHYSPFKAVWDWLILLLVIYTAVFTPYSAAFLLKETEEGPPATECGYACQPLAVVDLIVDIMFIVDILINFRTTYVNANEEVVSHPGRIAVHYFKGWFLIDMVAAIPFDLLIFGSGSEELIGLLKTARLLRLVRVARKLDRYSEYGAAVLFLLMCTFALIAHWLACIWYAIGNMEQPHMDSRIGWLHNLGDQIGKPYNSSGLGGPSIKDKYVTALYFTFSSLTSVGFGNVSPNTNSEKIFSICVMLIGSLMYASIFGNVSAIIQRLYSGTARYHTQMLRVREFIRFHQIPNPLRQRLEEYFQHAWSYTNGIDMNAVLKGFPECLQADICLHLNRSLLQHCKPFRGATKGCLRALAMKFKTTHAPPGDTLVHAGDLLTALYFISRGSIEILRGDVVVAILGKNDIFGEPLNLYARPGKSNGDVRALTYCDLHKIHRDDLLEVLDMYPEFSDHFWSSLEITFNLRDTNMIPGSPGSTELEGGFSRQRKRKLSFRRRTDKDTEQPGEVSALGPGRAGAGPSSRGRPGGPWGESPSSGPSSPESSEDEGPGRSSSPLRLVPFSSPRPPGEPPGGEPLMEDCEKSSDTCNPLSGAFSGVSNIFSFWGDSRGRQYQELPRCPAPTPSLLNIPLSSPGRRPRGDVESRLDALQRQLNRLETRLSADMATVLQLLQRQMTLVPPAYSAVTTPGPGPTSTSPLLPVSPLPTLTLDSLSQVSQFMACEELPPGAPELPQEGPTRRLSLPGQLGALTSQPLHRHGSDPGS
# assaySummary: Test for hERG potassium ion channel (manual patch-clamp, CHO cells)
# protocolConditions: CHO cells stably expressing hERG, whole cell patch-clamp, room temperature; read-out: IC50 for the inhibitory effect on hERG potassium channel current
quantityMeasured: IC50

# input // IC50 lookup, key: O=C(NCc1cc2[nH]c(CNCC3CCC3)cc2s1)c1cc(=O)n2ccccc2n1 [Trifluoroacetate of compound 12]
# output > 30 µM

###

# assaySummary: Pharmacokinetic test in mice
# Format: in vivo
# protocolConditions: mouse, iv; male C57 mice, i.v. 2.5 mg/kg, plasma; read-out: Vdss
quantityMeasured: Vd (L/kg)
Kindly provide the numeric value in L/kg only, without the unit symbol.

# input Record request: Vd value, item O=C(NCc1ccc2cc(CNCC34CC(F)(C3)C4)[nH]c2c1)c1cc(=O)n2ccccc2n1
# output 2.21
